# System: mice
# TEST_SETTINGS: mouse, in vivo, 1440 min
Entries and their Minimum toxic dose values follow.

Request: # lookup: Minimum toxic dose of Cc1ccnc(N2CCN(CCCC3Sc4ccccc4NC3=S)CC2)c1 (stereo not drawn)
Result: > 300 mg/kg

Request: Then this compound: COc1cccc(N2CCN(CCCCC3Sc4ccccc4NC3=O)CC2)n1 (stereo not drawn)
Result: 300 mg/kg

Request: What would you report for Cc1ccnc(N2CCN(CCCC3Oc4ccc(C)cc4NC3=O)CC2)c1 (stereo not drawn) ?
Result: 300 mg/kg

Request: Now the compound Cc1ccnc(N2CCN(CCCC3Oc4ccccc4NC3=O)CC2)c1 (stereo not drawn)
Result: 300 mg/kg

Request: What do you have for Cc1ccc(N2CCN(CCCCC3Sc4ccccc4NC3=O)CC2)nc1 (stereo not drawn) ?
Result: 100 mg/kg

Request: What do you have for O=C1Nc2ccccc2SC1CCCCN1CCN(c2ncccn2)CC1 (stereo not drawn) ?
Result: 300 mg/kg

====

# ASSAY_TARGET: histamine-(H1)-receptor (Cavia porcellus, UniProt P31389)
# Construct: Segments of the ileum 1.5 cm long from Dunkin Hartley guinea pigs; from tissue; host or cells: isolated ileum of Dunkin Hartley guinea pigs
# Sequence (P31389 whole entry): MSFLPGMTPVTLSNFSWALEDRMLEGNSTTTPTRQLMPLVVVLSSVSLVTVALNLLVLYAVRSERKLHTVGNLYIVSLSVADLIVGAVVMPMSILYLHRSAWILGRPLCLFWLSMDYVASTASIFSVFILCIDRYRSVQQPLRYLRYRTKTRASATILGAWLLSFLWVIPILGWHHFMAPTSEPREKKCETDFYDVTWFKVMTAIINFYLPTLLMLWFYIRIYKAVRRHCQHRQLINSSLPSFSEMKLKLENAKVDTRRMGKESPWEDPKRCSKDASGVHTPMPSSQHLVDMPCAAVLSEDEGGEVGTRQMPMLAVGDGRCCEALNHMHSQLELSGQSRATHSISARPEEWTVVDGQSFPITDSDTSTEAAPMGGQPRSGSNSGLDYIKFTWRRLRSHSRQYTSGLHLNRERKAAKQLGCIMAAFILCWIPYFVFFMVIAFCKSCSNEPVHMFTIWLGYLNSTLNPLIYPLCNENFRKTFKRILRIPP
# ASSAY_COMMENT: Histamine-(H1)-receptor antagonism in vitro, histamine-induced contractions of isolated ileum
# Assay type: cell-based, guinea pig (Dunkin Hartley)
# TEST_SETTINGS: 0.5 min; test substance 10^-6 mole/l, histamine 5 × 10^-6 mole/l, after 30 seconds; read-out: % inhibition of histamine-induced ileum contractions after 30 seconds
QUANTITY_KIND: inhibition at 1 µM
Remember to quote the unit after the number.

The following compounds have reported results that may help.
[
  {
    "COMPOUND": "Cc1ccnc(N2CCN(CCCCC3Sc4ccccc4N(C)C3=O)CC2)c1 (stereo not drawn)",
    "ASSAY_TARGET": "histamine-(H1)-receptor (Cavia porcellus, UniProt P31389)",
    "inhibition at 1 µM": "66%"
  },
  {
    "COMPOUND": "Cc1ccc(N2CCN(CCCCC3Sc4ccccc4NC3=O)CC2)nc1 (stereo not drawn)",
    "ASSAY_TARGET": "histamine-(H1)-receptor (Cavia porcellus, UniProt P31389)",
    "inhibition at 1 µM": "42%"
  },
  {
    "COMPOUND": "Cc1ccnc(N2CCN(CCCC3Sc4ccccc4NC3=O)CC2)c1 (stereo not drawn)",
    "ASSAY_TARGET": "histamine-(H1)-receptor (Cavia porcellus, UniProt P31389)",
    "inhibition at 1 µM": "42%"
  }
]

Request: Param item = Cc1ccnc(N2CCN(CCCCC3Sc4cc(F)ccc4NC3=O)CC2)c1 (stereo not drawn) ; retrieve measured inhibition at 1 µM.
Result: 78%

Request: How about this compound: Cc1ccnc(N2CCN(CCCC3Sc4cc(C)ccc4NC3=O)CC2)c1 (stereo not drawn)
Result: 42%

Request: Entry to check: Cc1ccnc(N2CCN(CCCCC3Sc4cc(Cl)ccc4NC3=O)CC2)c1 (stereo not drawn)
Result: 16%

====

# System: PAF-induced aggregation of rabbit blood platelets
# ASSAY_COMMENT: Anti-PAF activity in vitro, PAF-induced platelet aggregation
# Format: cell-based, rabbit (New Zealand hybrids)
# TEST_SETTINGS: Oryctolagus cuniculus, test substance 10^-5 mole/l, pH 7.4
# Description: 4. Determination of Anti-PAF Activity In Vitro PAF (=Platelet Activating Factor) is a phospholipid mediator which has many effects. Activation of platelet aggregation induces protracted broncho-contraction and hyper-reactivity of the air paths. […] The aggregation which occurred in test tubes containing only platelet suspension was evaluated as 0%, whereas the aggregation which occurred in test tubes containing platelet suspension and PAF preparation was evaluated as 100%. […]
Record class 1 whenever inhibition at 10 µM is at 40% or higher; record class 0 when lower.

As a guide, the following entries are already answered.
[
  {
    "COMPOUND": "Cc1ccnc(N2CCN(CCCC3Sc4cc(C)ccc4NC3=O)CC2)c1 (centres unmarked)",
    "ASSIGNED_CATEGORY": "class 1"
  },
  {
    "COMPOUND": "Cc1ccnc(N2CCN(CCCC3Oc4ccc(C)cc4NC3=O)CC2)c1 (centres unmarked)",
    "ASSIGNED_CATEGORY": "class 1"
  },
  {
    "COMPOUND": "Cc1ccnc(N2CCN(CCCC3Oc4ccccc4NC3=O)CC2)c1 (centres unmarked)",
    "ASSIGNED_CATEGORY": "class 1"
  },
  {
    "COMPOUND": "CCCCN1C(=O)C(CCCCN2CCN(c3cc(C)ccn3)CC2)Sc2ccccc21 (centres unmarked)",
    "ASSIGNED_CATEGORY": "class 1"
  }
]

Pending compound:
Request: I'd appreciate it if you could say whether Cc1ccnc(N2CCN(CCCCC3Sc4cc(Cl)ccc4NC3=O)CC2)c1 (centres unmarked) has inhibition at 10 µM at least equal to 40%.
Result: class 0
